Experiment: Cytotoxicity against HEK293 cells after 72 hrs by MTT assay
Type: cell-based
Conditions: human
Please provide measured CC50 at 72 h for the entries that follow.
Field format: number, assumed µM, no unit text.

Data request: Give the measured CC50 at 72 h for CC(=O)C1=C(O)C=C2Oc3c4c(c(C)c(O)c3[C@@]2(C)C1=O)O/C(=C\c1cc(C(C)(C)C)cc(C(C)(C)C)c1O)C4=O
Data returned: 14.5

Data request: Give the measured CC50 at 72 h for COc1ccc(/C=C2\Oc3c(C)c(O)c4c(c3C2=O)OC2=CC(O)=C(C(C)=O)C(=O)[C@@]24C)cc1
Data returned: 15.8

Data request: Give the measured CC50 at 72 h for CC(=O)C1=C(O)C=C2Oc3c4c(c(C)c(O)c3[C@@]2(C)C1=O)O/C(=C\c1cccc(Br)c1)C4=O
Data returned: 14.5
